Each recorded value in this set is attributed to PubChem BioAssay (NCI).

Consider the following compounds; for each one, report its TGI.
# System: SN12C renal
# measurement_protocol: NCI tumour cell line growth inhibition, 48 h

Req: What does the record list as TGI for CCCCCCCCN=C(NCCCCCCCC)SCc1cccc2ccccc12 ?
Resp: 2.63 µM

Req: Lookup CCN(CC)c1ccc(C2N3CCCCC3[C@@H]3c4[nH]c5ccccc5c4CCN23)cc1 (stereo not given in full)
Resp: 51.6 µM

Req: Repeat with CSc1nc(SC)c2c(C)cn(COCCOC(=O)c3ccccc3)c2n1
Resp: > 100 µM

Req: Request: CC12O[C@H](C[C@@H](OC(=O)CCC(=O)O)[C@H]1O)n1c3ccccc3c3c4c(c5c6ccccc6n2c5c31)C(=O)NC4=O
Resp: 24.5 µM

Req: Please do the same for CC1(C)C(=O)/C=C\C(=O)C(C)(C)C(=O)/C=C\C(=O)C(C)(C)C2=CC=C(O2)C(C)(C)C(=O)/C=C\C1=O as well.
Resp: 14.1 µM

---

Exercise: state measured TGI for each of the molecules provided.
# Test system: CCRF-CEM leukemia
# measurement_protocol: NCI tumour cell line growth inhibition, 48 h

Req: Recorded TGI of FC(F)(F)c1cccc(-c2[nH]ncc2-c2nnnn2-c2ccccc2)c1 , please.
Resp: 22.9 µM

Req: Try this molecule too: O=C1Nc2ccc(Cl)c(I)c2C1=O
Resp: 57.4 µM

Req: And the next one, Cc1cc(Br)ccc1N=Nc1c(C)nn(-c2ccccc2)c1-c1ccccc1 ?
Resp: > 100 µM

Req: # iterate: COC(=O)C(CCC1(C)OCCO1)=[N+]=[N-]
Resp: > 100 µM

Req: Now this one: COc1cc(O)c(C(=O)/C=C/c2ccc(OC)c(OCc3ccccc3)c2)c(OC)c1
Resp: > 100 µM

Req: O=c1[nH]c2ccc(CC(=S)N3CCOCC3)cc2o1 ?
Resp: > 100 µM

---

Give TGI for every item shown.
# Test system: SN12C renal
# measurement_protocol: NCI tumour cell line growth inhibition, 48 h
Where a SMILES comes first, the peptide text is derived from it. [ ]: non-standard residue; d: D form. The star is where a group is joined. ξ: configuration not given here. NMeF = CN[C@@H](Cc1ccccc1)C(=O)O; NMeV = CN[C@H](C(=O)O)C(C)C; ξNMeV = CNC(C(=O)O)C(C)C; Boc = CC(C)(C)OC(=O)*; OBn = c1ccc(CO*)cc1

Req: I have this molecule here, Cc1cc(O)c2c(c1)C(C1c3cccc(O)c3C(=O)c3c(O)cc(C)cc31)c1cccc(O)c1C2=O (stereo unspecified) , and I need its recorded TGI.
Resp: 3.23 µM

Req: Check CC(C)C(C(=O)N(C)[C@H](C(=O)N1CCC[C@H]1C(=O)N(C)[C@@H](Cc1ccccc1)C(=O)OCc1ccccc1)C(C)C)N(C)C(=O)[C@@H](NC(=O)OC(C)(C)C)C(C)C (stereo partly specified) (Boc-V[ξNMeV][NMeV]P[NMeF]-OBn) too.
Resp: > 100 µM

Req: Item: N#Cc1ccc(C2SCc3nc4ccccc4n32)cc1 (stereo unspecified)
Resp: > 100 µM

Req: O=C1NC(=NCCc2ccc(Br)cc2)S/C1=C\c1ccc2ncccc2c1 , same question.
Resp: > 25 µM

Req: Another molecule to look at: O=C(O)c1nn(-c2ccccc2)nc1-c1nn(-c2ccccc2)nc1C(=O)O
Resp: > 100 µM

Req: Another molecule: O=C(CC(C(=O)c1cccs1)c1ccsc1)c1ccc(Cl)s1 (stereo unspecified)
Resp: > 100 µM

Req: Param item: CCCCCCCCCCCCOC1C(COCCN2CCCCC2)OC2OC(C)(C)OC21 (stereo unspecified)
Resp: 4.72 µM

Req: Further, for Cc1c(C(N)=O)sc2nc(C)n(/N=c3\scc(-c4ccccc4)n3Cc3ccccc3)c(=O)c12 ?
Resp: > 100 µM

Req: Now this one: COC(=O)CC1=C(C)/C(=C/c2[nH]c(-c3ccc[nH]3)cc2OC)N=C1C
Resp: 9.19 µM

Req: Check O=C1CN(c2cccc(C(F)(F)F)c2)C(=O)CN1CCN1CC(=O)N(c2cccc(C(F)(F)F)c2)CC1=O too.
Resp: > 100 µM

Req: Likewise for C(=C/c1nnnn1-c1ccccc1)/Nc1ccccc1 ?
Resp: > 100 µM

Req: How about C=C(C)CCC1C=[N+]([O-])OC(C)(C)C1(C)C (stereo unspecified) ?
Resp: > 100 µM

Req: Next entry: NS(=O)(=O)c1ccc(N=Nc2c[nH]c(=O)c(O)c2)cc1
Resp: > 100 µM

Req: Request: COc1ccc([I+]c2ccc(OC)cc2)cc1
Resp: > 100 µM

Req: Next up: Cc1ccnc(Nc2[nH]c(C(=O)c3ccc(Cl)cc3)c(N)c2C(=S)Nc2ccccc2)c1
Resp: 31 µM

Req: What about this molecule? COC1/C(=C\C(C)=O)c2ccccc2N1C(C)=O (stereo unspecified)
Resp: > 100 µM

Req: // query: COc1cccc(CCNc2c(C#N)c3n(c4ccccc4[n+]3C)c3ncccc23)c1
Resp: 32.7 µM

Req: Entry Brc1ccc(-c2cc3c(cc2C2SCCS2)OCO3)cc1 please
Resp: > 100 µM

Req: Request: COc1ccc2c(c1)/c(=C/C#N)c1c3ccccc3[n+](C)n21
Resp: 47.4 µM

Req: Also need CCOC(=O)c1nc2cc(Cl)ccc2[nH]c1=O , thanks.
Resp: > 100 µM

Req: Next up: CN(C)CCCn1c(Cn2nc3ccccc3n2)nc2cc(C(F)(F)F)ccc21
Resp: > 100 µM

Req: Please do the same for N#CC(/C(CCCC(=O)Nc1cccc([N+](=O)[O-])c1)=N\NC(=O)c1c(O)ccc2ccccc12)c1nc2ccccc2s1 (stereo unspecified) as well.
Resp: > 100 µM

Req: Next molecule: COC(=O)C12Oc3ccc(-c4ccc5c(c4O)C(O)=C4C(=O)CC(C)C(O)C4(C(=O)OC)O5)c(O)c3C(O)=C1C(=O)CC(C)C2O (stereo unspecified)
Resp: > 100 µM

Req: Field entry: Cc1[nH]c2cc([N+](=O)[O-])ccc2c1[N+](=O)[O-]
Resp: 95 µM

Req: Can you handle O=C(Oc1c(Cl)cc(Cl)cc1Cl)c1ccccc1Nc1ccnc(C(F)(F)F)c1 next?
Resp: 14.5 µM

Req: How about Cc1cc(N(CCNc2ccnc3cc(Cl)ccc23)Cc2ccc3c(c2)OCO3)nc(N2CCCC2)n1 ?
Resp: 3.87 µM

Req: Same lookup for CSc1ccc(C(=O)/C=C/c2ccc(Cl)cc2Cl)cc1 , please.
Resp: > 100 µM

Req: Then COc1ccc(C(O)c2ccccn2)cc1 (stereo unspecified) ?
Resp: > 100 µM

Req: Proceed to CN(C)c1ccc2[nH]c3c(C(N)=O)cc(=O)c(=O)c=3oc2c1
Resp: 7.23 µM

Req: Could you do the same for CC#COS(=O)(=O)c1ccc(C)cc1 , please?
Resp: > 100 µM

Req: Also CNC(=O)CNC(=O)N(C[C@@H]1CCCN1C(=O)[C@H](CC(C)C)NC(=O)OC(C)(C)C)C(C)C , if possible.
Resp: > 100 µM

Req: Entry O=c1c2c3c(sc2nc2n1NC=NN2)CCCC3 please
Resp: 39.6 µM

Req: Do the same for O=C1Cc2cc(CCN3CCNCC3)c(Cl)cc2N1 please
Resp: > 100 µM

Req: // repeat for C(=N\NC1=NCCN1)/c1ccc2ccccc2c1 and report
Resp: 35.4 µM

Req: Field entry: O=S(=O)(/N=C(\NO)Nc1ccc(Cl)cc1)c1cc2ccccc2s1
Resp: 33 µM

Req: What about N#COc1ccc(Oc2ccc(OC#N)cc2)cc1 ?
Resp: > 100 µM

Req: Likewise for NC(=O)/N=C/c1c(O)c2ccccc2oc1=O ?
Resp: > 100 µM

Req: Next record, please: O=C(NC1=C(Cl)C(=O)c2ccccc2C1=O)C(=O)C(C(=O)c1ccc2ccccc2c1)C1OC(=O)c2ccccc21 (stereo unspecified)
Resp: 16.3 µM

Req: Moving on to O=S(=O)(c1ccccc1)c1ccc(-c2nc(-c3ccc4c(c3)Sc3ccccc3S4)cs2)cc1
Resp: > 100 µM

Req: Repeat with CC(=O)c1c(C)c2cnc(Nc3ccc(N4CCNCC4)cn3)nc2n(C2CCCC2)c1=O
Resp: 21.6 µM

Req: Here is the next molecule: Cc1nn2c(c1C#N)NNc1c-2sc(=N)nnc1=O
Resp: > 100 µM

---

Provide the recorded GI50 for the entries that follow.
# Tested on: TK-10 renal
# measurement_protocol: NCI tumour cell line growth inhibition, 48 h

Req: What GI50 value was documented for this compound, Cc1c(C(N)=O)sc2nc(C)n(/N=c3\scc(-c4ccccc4)n3Cc3ccccc3)c(=O)c12 ?
Resp: 3780 nM

Req: Same lookup for CN1CCN(c2ccc(NC3=CC(=O)c4ncncc4C3=O)cc2)CC1 , please.
Resp: 2010 nM

Req: Similarly, CCS(=O)(=O)c1ccc(OC)c(Nc2ncc(-c3cccc(F)c3)o2)c1 ?
Resp: > 25000 nM

Req: Entry Cc1cc(N2CCOCC2)nc(NCc2cc(Nc3ccnc4cc(Cl)ccc34)ccc2F)n1 please
Resp: 1840 nM

Req: Now the same for O=C1C(=C([O-])c2ccccc2)C(=O)c2ccccc21.O=C1C(=C([O-])c2ccccc2)C(=O)c2ccccc21.[Ni+2]
Resp: > 100000 nM

Req: What about this compound? CC1=C[C@@H]2c3c(c(O)c(O)c4oc5cc(O)cc(O)c5c(=O)c34)[C@@H](c3cc(O)c(O)c4oc5cc(O)cc(O)c5c(=O)c34)[C@@H]2C(C)(C)C1
Resp: 5850 nM

Req: Same lookup for O=C1/C(=C/c2ccc(C(F)(F)F)cc2)COc2ccc(O)c(O)c21 , please.
Resp: 1640 nM

Req: Request: CN(CCCCCl)P(=O)(OCc1ccc([N+](=O)[O-])o1)OCC1OC(n2cc([N+](=O)[O-])c(=O)[nH]c2=O)CC1O (stereo unspecified)
Resp: > 100000 nM

Req: What do we get for N#Cc1c(N)nc(N2CCOCC2)c(C#N)c1-c1c(Cl)cccc1Cl ?
Resp: 20900 nM

Req: Try the compound FC(F)(F)c1cccc(-c2[nH]ncc2-c2nnnn2-c2ccccc2)c1
Resp: 6600 nM

Req: Entry CCOC(=O)/C=C1/SC(=Nc2ccc(C#N)cc2)N(Cc2ccco2)C1=O please
Resp: 2540 nM

Req: One more compound: COc1cnccc1Nc1nc(-c2nn(Cc3c(F)cc(OCCO)cc3F)c3ccccc23)ncc1OC
Resp: 14500 nM

Req: Same lookup for COc1ccc2c(c1)-c1c(c3cc(OC)ccc3n(CCN(C)C)c1=O)C2=O , please.
Resp: 1650 nM

Req: // same read-out, input: COc1ccc2nc3ccccc3c(NCCNCC(C)O)c2c1 (stereo unspecified)
Resp: 540 nM

Req: Then this compound: COc1ccc2c(c1)/C(=N/OC(C)=O)c1c-2c(OC)nc2ccccc12
Resp: 79100 nM

Req: How about this compound: C[C@]12CCC(=O)C[C@@H]1CC[C@@H]1[C@@H]2CC[C@]2(C)[C@@H](OC(=O)N(CCCl)N=O)CC[C@@H]12
Resp: 3850 nM

Req: Now the compound Cc1cc(N(CCNc2ccnc3cc(Cl)ccc23)Cc2ccc3c(c2)OCO3)nc(N2CCCC2)n1
Resp: 1740 nM

Req: Next up: COc1ccc(-c2c(-c3ccc(C#N)c(F)c3)nc(N3CCC(N)CC3)n(C)c2=O)cc1F
Resp: 12800 nM

Req: // repeat for CC/C=C\C[C@H]1C/C=C2/C(=O)C(Cl)=C[C@@H]2C/C=C\CCCC(=O)O1 and report
Resp: 597 nM

Req: Here is the next compound: COc1ccc2c3/c(=C\c4ccc(N(C)C)cc4)c4ccccc4n3[n+](C)c2c1
Resp: 274 nM

Req: What about CC(=O)c1c(C)c2cnc(Nc3ccc(N4CCNCC4)cn3)nc2n(C2CCCC2)c1=O ?
Resp: 533 nM
